Target: Melanin-concentrating hormone receptor 1 (Macaca mulatta, UniProt Q8MJ89)
Sequence (Q8MJ89 whole entry): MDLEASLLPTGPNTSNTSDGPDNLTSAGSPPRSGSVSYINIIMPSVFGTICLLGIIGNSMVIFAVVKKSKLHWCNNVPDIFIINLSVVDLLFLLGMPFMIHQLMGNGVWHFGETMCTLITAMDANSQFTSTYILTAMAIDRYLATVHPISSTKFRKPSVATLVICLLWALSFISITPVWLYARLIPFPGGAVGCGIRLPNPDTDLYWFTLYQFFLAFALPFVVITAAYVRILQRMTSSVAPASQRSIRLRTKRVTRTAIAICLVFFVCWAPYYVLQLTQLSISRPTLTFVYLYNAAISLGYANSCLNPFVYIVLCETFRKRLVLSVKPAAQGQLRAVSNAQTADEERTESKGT
Experiment: Antagonist activity at rhesus monkey MCHR1 assessed inhibition of MCH-mediated intracellular Ca2+ calcium mobilization
pIC50: −log10 of the molar value.

molecule: C[C@H]1c2c([nH]c3ccc(C(F)(F)F)cc23)C[C@H]2CCN(CCC3(C(=O)O)CCCCC3)C[C@@H]21
pIC50: 9.10

----------
Target: UniProtKB P97639
Sequence (P97639 whole entry): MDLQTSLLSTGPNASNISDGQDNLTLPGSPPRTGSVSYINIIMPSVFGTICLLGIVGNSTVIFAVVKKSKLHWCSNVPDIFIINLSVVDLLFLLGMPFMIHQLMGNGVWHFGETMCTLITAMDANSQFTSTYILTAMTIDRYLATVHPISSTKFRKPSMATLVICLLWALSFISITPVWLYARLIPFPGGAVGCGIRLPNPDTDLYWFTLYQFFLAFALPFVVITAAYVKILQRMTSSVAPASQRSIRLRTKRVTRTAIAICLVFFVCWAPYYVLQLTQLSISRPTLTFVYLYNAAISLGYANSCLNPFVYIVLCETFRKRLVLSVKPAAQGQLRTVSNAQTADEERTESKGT
Assay: Antagonist activity at rat MCHR1 assessed inhibition of MCH-mediated intracellular Ca2+ calcium mobilization
pIC50: −log10 of the molar value.
reported-endpoint: pIC50

molecule: C[C@H]1c2c([nH]c3ccc(C(F)(F)F)cc23)C[C@H]2CCN(CCC3(C(=O)O)CCCCC3)C[C@@H]21
reported-endpoint: pIC50
measured: 9.10

----------
Experiment: Mean residence time in beagle dog at 3 mg/kg, po
Format: ADME, organism-based, Canis lupus familiaris
Design: dose 3 mg/kg, route oral
Conditions: in vivo

molecule: C[C@H]1c2c([nH]c3ccc(C(F)(F)F)cc23)C[C@H]2CCN(CCC3(C(=O)O)CCCCC3)C[C@@H]21
MRT: 4.2 h

----------
Biological target: Melanin-concentrating hormone receptor 1 (Mus musculus)
Sequence (Q8JZL2 whole entry): as the sequence (P97639 whole entry) above, with T5A, L24F, P27A, S29P, G34R, T138A counted along it
Assay: Antagonist activity at mouse MCHR1 assessed inhibition of MCH-mediated intracellular Ca2+ calcium mobilization
reported-endpoint: IC50 (nM)

molecule: C[C@H]1c2c([nH]c3ccc(C(F)(F)F)cc23)C[C@H]2CCN(CCC3(C(=O)O)CCCCC3)C[C@@H]21
system-name: Melanin-concentrating hormone receptor 1 (Mus musculus)
measured: 0.6

----------
Molecular target: Mu-type opioid receptor (Homo sapiens, UniProt P35372)
Sequence (P35372 whole entry): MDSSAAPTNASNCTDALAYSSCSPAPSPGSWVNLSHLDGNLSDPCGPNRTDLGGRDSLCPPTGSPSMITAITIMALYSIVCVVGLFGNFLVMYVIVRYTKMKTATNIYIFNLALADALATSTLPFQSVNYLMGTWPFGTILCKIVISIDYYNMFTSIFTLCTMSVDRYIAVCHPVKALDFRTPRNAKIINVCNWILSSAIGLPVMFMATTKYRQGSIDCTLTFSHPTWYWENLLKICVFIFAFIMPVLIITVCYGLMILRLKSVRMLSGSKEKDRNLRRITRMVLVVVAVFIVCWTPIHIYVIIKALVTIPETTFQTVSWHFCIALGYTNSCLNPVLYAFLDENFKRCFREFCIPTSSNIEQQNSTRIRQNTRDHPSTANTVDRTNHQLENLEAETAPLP
reported-endpoint: Ki

molecule: C[C@H]1c2c([nH]c3ccc(C(F)(F)F)cc23)C[C@H]2CCN(CCC3(C(=O)O)CCCCC3)C[C@@H]21
measured: > 2000 nM

----------
Experiment: Oral bioavailability in beagle dog at 3 mg/kg
Type: ADME, organism-based, Canis lupus familiaris
Settings: in vivo

molecule: C[C@H]1c2c([nH]c3ccc(C(F)(F)F)cc23)C[C@H]2CCN(CCC3(C(=O)O)CCCCC3)C[C@@H]21
bioavailability (%): 40

----------
Assay: Volume of distribution at steady state in cynomolgus monkey at 0.5 mg/kg, iv
Type: ADME, organism-based, Macaca fascicularis
Design: dose 0.5 mg/kg, route intravenous
Conditions: in vivo, read-out: Vdss

molecule: C[C@H]1c2c([nH]c3ccc(C(F)(F)F)cc23)C[C@H]2CCN(CCC3(C(=O)O)CCCCC3)C[C@@H]21
Vd: 2.3 L/kg
